Run description: Guest molecule concentration after incubation in initial medium without polymer (Comparative Example 1)
Assay type: physicochemical
Setup conditions: 3 h; 37° C.; pH 6.8 phosphate buffer
Measurement type: Concentration of guest molecule measured after different incubated time (ng/mL)
Give bare numbers, in ng/mL.

- Record smiles: "CCc1cc2c(cc1N1CCC(N3CCOCC3)CC1)C(C)(C)c1[nH]c3cc(C#N)ccc3c1C2=O"
  Measurement: 10200
- Record smiles: "CC1=C[C@H](O)CC(C)(C)[C@H]1/C=C/C(C)=C/C=C/C(C)=C/C=C/C=C(C)/C=C/C=C(C)/C=C/C1=C(C)C[C@@H](O)CC1(C)C"
  Measurement: 0

Next compound, please.
[Q] Consider the compound CC1=C(/C=C/C(C)=C/C=C/C(C)=C/CO)C(C)(C)CCC1 and give its measured Concentration of guest molecule measured after different incubated time.
[A] 51100

* * *

Run description: Binary supramolecular self-assembly systems of polymer and target: guest concentration over incubation time (Comparative Example 2)
Format: physicochemical
Setup conditions: binary system with 0.5% polymer 103; incubation 6 h
Values of Concentration of the target in the solution measured after different incubation time greater than or equal to 60000 ng/mL map to y; values below map to n.

- Molecule: "COC(=O)[C@H](c1ccccc1Cl)N1CCc2sccc2C1 [Clopidogrel, clopidogrel]"
  Label value: "y"
- Molecule: "C=CC[C@@H]1/C=C(\\C)C[C@H](C)C[C@H](OC)[C@H]2O[C@@](O)(C(=O)C(=O)N3CCCC[C@H]3C(=O)O[C@H](/C(C)=C/[C@@H]3CC[C@@H](O)[C@H](OC)C3)[C@H](C)[C@@H](O)CC1=O)[C@H](C)C[C@@H]2OC [Tacrolimus]"
  Label value: "n"
- Molecule: "COC1=CC(=O)C[C@@H](C)[C@]12Oc1c(Cl)c(OC)cc(OC)c1C2=O [Griseofulvin, griseofulvin]"
  Label value: "n"
- Molecule: "CCOc1nc2cccc(C(=O)OC(C)OC(=O)OC3CCCCC3)c2n1Cc1ccc(-c2ccccc2-c2nnn[nH]2)cc1 (stereo not shown) [Candesartan Cilexetil, candesartan cilexetil]"
  Label value: "y"
- Molecule: "COc1cc(/C=C/C(=O)CC(=O)/C=C/c2ccc(O)c(OC)c2)ccc1O [Curcumin]"
  Label value: "n"

[Q] I'd appreciate it if you could say whether Cc1ccc(-c2cc(C(F)(F)F)nn2-c2ccc(S(N)(=O)=O)cc2)cc1 [Celecoxib] has Concentration of the target in the solution measured after different incubation time at least equal to 60000 ng/mL.
[A] n

[Q] I'd appreciate it if you could say whether O=C(O)[C@H]1O[C@@H](Oc2cc3oc(-c4ccc(O)cc4)cc(=O)c3c(O)c2O)[C@H](O)[C@@H](O)[C@@H]1O [Scutellarin, scutellarin] has Concentration of the target in the solution measured after different incubation time at least equal to 60000 ng/mL.
[A] n

[Q] I'd appreciate it if you could say whether CC#CC(=O)N1CCC[C@H]1c1nc(-c2ccc(C(=O)Nc3ccccn3)cc2)c2c(N)nccn12 [Acalabrutinib, acalabrutinib] has Concentration of the target in the solution measured after different incubation time at least equal to 60000 ng/mL.
[A] y

[Q] I'd appreciate it if you could say whether CCCCC1OC(=O)c2ccccc21 (stereo not shown) [Butylphthalide] has Concentration of the target in the solution measured after different incubation time at least equal to 60000 ng/mL.
[A] y

[Q] I'd appreciate it if you could say whether CCCSc1nc(N[C@@H]2C[C@H]2c2ccc(F)c(F)c2)c2nnn([C@@H]3C[C@H](OCCO)[C@@H](O)[C@H]3O)c2n1 [Ticagrelor] has Concentration of the target in the solution measured after different incubation time at least equal to 60000 ng/mL.
[A] n
